# credit: patent US9085536B2

# assay_system: rNaV1.4 expressed in CHO cells (Rattus norvegicus)
# Construct: expressed in transfected cells; host or cells: CHO cells
# Sequence (P15390 whole entry): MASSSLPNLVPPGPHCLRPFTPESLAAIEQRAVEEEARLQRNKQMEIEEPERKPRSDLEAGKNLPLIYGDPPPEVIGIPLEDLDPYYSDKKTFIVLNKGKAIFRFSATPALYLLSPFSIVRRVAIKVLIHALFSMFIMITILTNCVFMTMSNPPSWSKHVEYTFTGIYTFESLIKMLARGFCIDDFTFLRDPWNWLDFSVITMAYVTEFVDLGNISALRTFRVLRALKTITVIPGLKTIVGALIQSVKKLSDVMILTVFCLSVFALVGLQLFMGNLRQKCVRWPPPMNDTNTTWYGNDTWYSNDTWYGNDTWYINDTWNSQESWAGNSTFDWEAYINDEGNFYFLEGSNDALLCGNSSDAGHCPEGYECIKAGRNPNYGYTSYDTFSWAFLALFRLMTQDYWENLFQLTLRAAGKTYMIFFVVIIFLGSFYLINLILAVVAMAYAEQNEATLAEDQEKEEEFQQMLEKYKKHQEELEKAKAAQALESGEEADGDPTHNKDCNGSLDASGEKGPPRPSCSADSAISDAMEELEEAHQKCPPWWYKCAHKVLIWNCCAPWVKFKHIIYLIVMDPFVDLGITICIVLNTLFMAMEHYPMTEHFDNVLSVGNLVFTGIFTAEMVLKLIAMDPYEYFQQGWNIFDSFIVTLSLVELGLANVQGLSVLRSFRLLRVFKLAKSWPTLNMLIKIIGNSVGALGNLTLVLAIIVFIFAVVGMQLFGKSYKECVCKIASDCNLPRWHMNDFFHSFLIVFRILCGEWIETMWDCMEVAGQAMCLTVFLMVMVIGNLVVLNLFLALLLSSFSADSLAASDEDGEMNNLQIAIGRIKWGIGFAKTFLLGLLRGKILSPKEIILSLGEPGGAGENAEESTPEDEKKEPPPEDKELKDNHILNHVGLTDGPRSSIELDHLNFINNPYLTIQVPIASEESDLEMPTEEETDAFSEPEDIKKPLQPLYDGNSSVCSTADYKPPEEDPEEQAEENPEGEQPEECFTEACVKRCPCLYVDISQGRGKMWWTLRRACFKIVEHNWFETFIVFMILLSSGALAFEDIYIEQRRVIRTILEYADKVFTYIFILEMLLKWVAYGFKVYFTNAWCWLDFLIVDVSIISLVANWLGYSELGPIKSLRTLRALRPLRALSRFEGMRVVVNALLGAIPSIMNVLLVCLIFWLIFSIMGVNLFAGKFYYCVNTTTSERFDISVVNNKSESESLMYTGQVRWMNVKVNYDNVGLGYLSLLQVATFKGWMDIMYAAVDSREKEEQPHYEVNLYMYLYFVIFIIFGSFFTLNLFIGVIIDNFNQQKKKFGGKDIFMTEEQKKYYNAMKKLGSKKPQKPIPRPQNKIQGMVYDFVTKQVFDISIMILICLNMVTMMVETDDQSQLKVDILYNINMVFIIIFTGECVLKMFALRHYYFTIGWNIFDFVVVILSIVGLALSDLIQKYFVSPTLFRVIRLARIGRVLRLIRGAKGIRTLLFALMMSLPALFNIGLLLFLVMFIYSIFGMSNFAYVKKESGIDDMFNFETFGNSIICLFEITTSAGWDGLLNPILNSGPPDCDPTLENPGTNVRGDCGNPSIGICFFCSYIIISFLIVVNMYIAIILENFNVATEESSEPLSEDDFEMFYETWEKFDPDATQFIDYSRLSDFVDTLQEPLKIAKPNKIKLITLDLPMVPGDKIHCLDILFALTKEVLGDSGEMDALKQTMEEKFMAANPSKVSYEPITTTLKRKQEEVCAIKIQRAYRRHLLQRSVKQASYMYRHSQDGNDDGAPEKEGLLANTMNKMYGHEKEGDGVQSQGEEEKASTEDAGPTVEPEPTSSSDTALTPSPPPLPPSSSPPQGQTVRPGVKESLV
# measurement_protocol: Na+ current block at steady state, whole-cell patch clamp with pulse trains
# Type: cell-based
# assay_conditions: 20 μM; 10 Hz pulse trains
# Description: Binding of aconitine to NaV is use-dependent and is known to result both in a left shift of the current-voltage (I-V) relationship and in partial block of the channel. […] First, as block by aconitine is known to be use dependent, peak current was measured as a function of pulse number in the presence of two different concentrations of aconitine. […] Block by aconitine is known to be use-dependent, therefore the use-dependence of the C14 derivatives of aconitine was evaluated. […]
experimental_endpoint: depolarizing pulses required to reach steady-state block

| compound | meas_value |
| --- | --- |
| CCN1CC2(COC)C3C(OC)C4C1C3(C1C[C@@]3(O)[C@H](OC(=O)c5ccc6ccccc6c5)[C@@H]1[C@]4(OC(C)=O)[C@@H](O)[C@@H]3OC)[C@@H](OC)C[C@H]2O (stereo partly shown) | 800 pulses |
| CCN1CC2(COC)C3C(OC)C4C1C3(C1C[C@@]3(O)[C@H](OC(=O)C5CCCCC5)[C@@H]1[C@]4(OC(C)=O)[C@@H](O)[C@@H]3OC)[C@@H](OC)C[C@H]2O (stereo partly shown) | around 600 pulses |
| CCN1CC2(COC)C3C(OC)C4C1C3(C1C[C@@]3(O)[C@H](OC(=O)c5ccccc5)[C@@H]1[C@]4(OC(C)=O)[C@@H](O)[C@@H]3OC)[C@@H](OC)C[C@H]2O (stereo partly shown) | around 600 pulses |
